# System: Rattus norvegicus
# Measurement Notes: Intravenous dose required to reduce the lowering of the arterial blood pressure caused by PAF
# Assay type: functional
# Condition Summary: Rattus norvegicus, Arterial blood, iv; read-out: ID50 (the source's name)

Smiles Structure	ED50
O=C(c1cncc(Br)c1)N1CCC(=C2c3ccc(Cl)cc3CCc3cccnc32)CC1	> 5 mg/kg
COC(=O)c1ccncc1C(=O)N1CCC(=C2c3ccc(Cl)cc3CCc3cccnc32)CC1	> 5 mg/kg
Cl.Clc1ccc2c(c1)CCc1cccnc1C2=C1CCN(CCc2cccnc2)CC1	> 5 mg/kg
COc1ncccc1CN1CCC(=C2c3ccc(Cl)cc3CCc3cccnc32)CC1	> 5 mg/kg
O=C(c1ccc(Cl)nc1)N1CCC(=C2c3ccc(Cl)cc3CCc3cccnc32)CC1	> 1 mg/kg
O=C(O)c1cncc(CN2CCC(=C3c4ccc(Cl)cc4CCc4cccnc43)CC2)c1	> 5 mg/kg
O=C(c1ccc(O)nc1)N1CCC(=C2c3ccc(Cl)cc3CCc3cccnc32)CC1	1.5 mg/kg

* * *

# Organism: Mus musculus
# Measurement Notes: Dose required to inhibit PAF-induced mortality
# Assay type: functional
# Condition Summary: read-out: ID50 (the source's name)
Listed next: entries and their corresponding ED50.

Smiles Structure	Readout Qualifier	ED50 [mg/kg]
Clc1ccc2c(c1)CCc1cccnc1C2=C1CCN(Cc2ccc(Cl)nc2)CC1	=	20
Clc1ccc2c(c1)CCc1cccnc1C2=C1CCN(Cc2cncc(Br)c2)CC1	=	10
O=C(O)c1cncc(CN2CCC(=C3c4ccc(Cl)cc4CCc4cccnc43)CC2)c1	>	30
O=C(c1cncc(Br)c1)N1CCC(=C2c3ccc(Cl)cc3CCc3cccnc32)CC1	>	30
O=C(c1ccc(O)nc1)N1CCC(=C2c3ccc(Cl)cc3CCc3cccnc32)CC1	>	3
O=C(c1ccc(Cl)nc1)N1CCC(=C2c3ccc(Cl)cc3CCc3cccnc32)CC1	=	20
CSc1ncccc1C(=O)N1CCC(=C2c3ccc(Cl)cc3CCc3cccnc32)CC1	>	30
COc1ccc(CN2CCC(=C3c4ccc(Cl)cc4CCc4cccnc43)CC2)cn1	<	30
COc1ccc(C(=O)N2CCC(=C3c4ccc(Cl)cc4CCc4cccnc43)CC2)cn1	=	30
Cc1ccncc1CN1CCC(=C2c3ccc(Cl)cc3CCc3cccnc32)CC1	=	10

* * *

In this section, each of the compounds is paired with its reported ED50.
# Species on record: Rattus norvegicus
# Measurement Notes: Tested for dose required to inhibit endotoxin induced mortality in rats
# Format: functional
# Condition Summary: read-out: ID50 (the source's name)
Quantity: ED50

Compound	Experimental Value
CCOC(=O)N1CCC(=C2c3ccc(Cl)cc3CCc3cccnc32)CC1 [LORATADINE]	> 5 mg/kg
Cc1cncc(CN2CCC(=C3c4ccc(Cl)cc4CCc4cccnc43)CC2)c1 [RUPATADINE]	0.5 mg/kg
CC(=O)N1CCC(=C2c3ccc(Cl)cc3CCc3cccnc32)CC1 [SCH-37370]	> 5 mg/kg
CN(C)CCOC(c1ccccc1)c1ccccc1 [DIPHENHYDRAMINE]	> 5 mg/kg

* * *

# Organism: Mus musculus
# Measurement Notes: Dose required to inhibit PAF-induced mortality
# Format: functional
# Condition Summary: read-out: ID50 (the source's name)
Listed molecules paired with reported ED50
Quantity: ED50

Molecule	Quantity	Experimental Value
COC(=O)c1ccncc1C(=O)N1CCC(=C2c3ccc(Cl)cc3CCc3cccnc32)CC1	ED50	> 30 mg/kg
Cl.Clc1ccc2c(c1)CCc1cccnc1C2=C1CCN(CCc2cccnc2)CC1	ED50	> 30 mg/kg
CC(c1cccnc1)N1CCC(=C2c3ccc(Cl)cc3CCc3cccnc32)CC1.Cl (stereo not given)	ED50	> 30 mg/kg
[O-][n+]1cccc(CN2CCC(=C3c4ccc(Cl)cc4CCc4cccnc43)CC2)c1	ED50	> 30 mg/kg
O=C(c1cccnc1O)N1CCC(=C2c3ccc(Cl)cc3CCc3cccnc32)CC1	ED50	> 30 mg/kg
